- System: LAB
- protocolText: In vitro RGE fermentation with LAB
- Type: in vitro ADME
- appliedConditions: RGE incubated with LAB (1 billion CFU) for 7 days at 37 °C; result in words
readoutLabel: Relative abundance / metabolic activity following fermentation of RGE with LAB

[[record]]
compound = "CC(C)=CCCC(C)(OC1OC(CO)C(O)C(O)C1O)C1CCC2(C)C1C(O)CC1C3(C)CCC(O)C(C)(C)C3C(O)CC12C (centres unmarked) [GF1]"
targetentity = "LAB"
result = "remained unchanged"

[[record]]
compound = "CC(C)=CCCC(C)(O)C1CCC2(C)C1C(O)CC1C3(C)CCC(O)C(C)(C)C3C(OC3OC(CO)C(O)C(O)C3O)CC12C (centres unmarked) [GRh1]"
targetentity = "LAB"
result = "significantly increased"

[[record]]
compound = "CC(C)=CCCC(C)(O)C1CCC2(C)C1C(O)CC1C3(C)CCC(O)C(C)(C)C3CCC12C (centres unmarked) [PPD, 20(s)-protopanaxadiol]"
targetentity = "LAB"
result = "significantly increased"

[[record]]
compound = "CC(C)=CCC[C@](C)(O[C@@H]1O[C@H](CO[C@@H]2O[C@H](CO)[C@@H](O)[C@H](O)[C@H]2O)[C@@H](O)[C@H](O)[C@H]1O)[C@H]1CC[C@]2(C)[C@@H]1[C@H](O)C[C@@H]1[C@@]3(C)CC[C@H](O[C@@H]4O[C@H](CO)[C@@H](O)[C@H](O)[C@H]4O[C@@H]4O[C@H](CO)[C@@H](O)[C@H](O)[C@H]4O)C(C)(C)[C@@H]3CC[C@]12C [GRb1, ginsenoside Rb1]"
targetentity = "LAB"
result = "marked decrease"

[[record]]
compound = "CC(C)=CCCC(C)(OC1OC(CO)C(O)C(O)C1O)C1CCC2(C)C1C(O)CC1C3(C)CCC(O)C(C)(C)C3C(OC3OC(CO)C(O)C(O)C3O)CC12C (centres unmarked) [GRg1]"
targetentity = "LAB"
result = "marked decrease"

[[record]]
compound = "CC(C)=CCCC(C)(OC1OC(CO)C(O)C(O)C1O)C1CCC2(C)C1C(O)CC1C3(C)CCC(OC4OC(CO)C(O)C(O)C4O)C(C)(C)C3CCC12C (centres unmarked) [GF2]"
targetentity = "LAB"
result = "remained unchanged"


Enter reported Relative abundance / metabolic activity following fermentation of RGE with LAB observed with LAB for CC(C)=CCC[C@](C)(O)[C@H]1CC[C@]2(C)[C@@H]1[C@H](O)C[C@@H]1[C@@]3(C)CC[C@H](O[C@@H]4O[C@H](CO)[C@@H](O)[C@H](O)[C@H]4O)C(C)(C)[C@@H]3CC[C@]12C [GRh2, ginsenoside Rh2]
significantly increased

Likewise for CC(C)=CCCC(C)(O)C1CCC2(C)C1C(O)CC1C3(C)CCC(O)C(C)(C)C3C(O)CC12C (centres unmarked) [PPT, 20(s)-protopanaxatriol] ?
significantly increased
